System: DMS-273
Experiment: NCI tumour cell line growth inhibition, 48 h
The source made the active and inactive calls. Cut-off read from the data, not from the text of the source: active = GI50 up to about 1.1 µM and inactive = higher.
Give your call using only these classes: true (1) for active, false (0) for inactive

Here's what some known entries look like.
- Cc1ccc(C2OC(COCc3ccc(Cl)cc3)C(OCc3ccc(Cl)cc3)C2O)cc1 (stereo unspecified): false (0)
- CC(=O)C1CC2(c3ccccc3)C(=O)c3ccccc3N2O1 (stereo unspecified): false (0)
- COc1cc([C@@H]2c3cc4c(cc3[C@@H](NCc3cccc(C#N)c3)C3COC(=O)[C@@H]32)OCO4)cc(OC)c1O (stereo partly specified): true (1)

Challenge: I would be grateful if you could indicate the recorded call for CC(=O)N1CC2Nc3ccccc3C2CC1CO (stereo unspecified) .
Response given: false (0)

Challenge: Same lookup for CC(=O)OCC1OC(NC(=O)N(CCCl)N=O)C(OC(C)=O)C(OC(C)=O)C1OC(C)=O (stereo unspecified) , please.
Response given: false (0)

Source of measurements: ChEMBL document CHEMBL1201862
